These entries and their values trace back to paper PMC12136788.

Measured binding signal values are reported for all entries that follow.
Biological target: T1, UNK ZnF1-6 (called full-length) (human, UniProt Q9C0B0 30-357)
T1 sequence: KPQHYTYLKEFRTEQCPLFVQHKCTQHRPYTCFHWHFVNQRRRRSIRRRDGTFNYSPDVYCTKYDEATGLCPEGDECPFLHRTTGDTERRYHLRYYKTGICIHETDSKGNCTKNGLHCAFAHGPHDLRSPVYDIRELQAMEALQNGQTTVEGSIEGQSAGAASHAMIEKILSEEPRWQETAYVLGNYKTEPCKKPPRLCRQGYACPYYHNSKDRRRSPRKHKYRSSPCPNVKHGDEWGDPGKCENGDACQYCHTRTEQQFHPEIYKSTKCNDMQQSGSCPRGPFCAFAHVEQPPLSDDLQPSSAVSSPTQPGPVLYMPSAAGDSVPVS
Experiment: nsRBNS (natural sequence RNA bind-n-seq); RBNS binding buffer (assumed for nsRBNS): 25 mM Tris pH 7.5, 150 mM KCl, 3 mM MgCl2, 0.01% Triton X-100, 500 ug/ml BSA, 20 U/ml SUPERase-In, 4 C; UNK is unkempt and MSI1 is Musashi-1; names of the RNAs are library labels; protein concentration not given here; high values mean tight binding
In all, about 5,800 sequences were measured (“enrichment r”: median about 0.68, highest 2% from about 11 on). The entries come from a sample that favours the highest values as a whole.

{"BINDER": "chr17:77216858:77216994:+|3pUTR|ENSG00000129657|unk|FALSE|bound_elsewhere (ssRNA) RNA: GGGAGUUCUACAGUCCGACGAUCUGUUUCUACCUUUAGUACCUUGCCACUCUUUUAAAACGCUGCUGUCAUUUCCCAUUUCUUAGUACUAAUGAUUCUUUGAUUCUCCCUCUAUUAUGUCUUAAUUCACUUUCCUUCCUAAAUCAACAGAGGAUUGAGCAUCA", "binding signal": "14 enrichment R"}
{"BINDER": "chr3:62294290:62294391:+|3pUTR|ENSG00000144724|msi1|FALSE|unique (ssRNA) RNA: GGGAGUUCUACAGUCCGACGAUCAACUAGUCCUCUAAAAAUUCCCUAUUACUCCUAUAGCAAUCUAAUAAAAACUACCUACAUAGUUACUGUUUUCUUUCCUUCUUUGCCAAAUGUUUUAUAAUAAAUCUCUUAAUUACAUACCAACAGAGGAUUGAGCAUCA", "binding signal": "68.7 enrichment R"}
{"BINDER": "chr17:75827259:75827360:-|3pUTR|ENSG00000092929|unk|FALSE|unique (ssRNA) RNA: GGGAGUUCUACAGUCCGACGAUCGGACAGUUUGGCUGCUGUGUCUGCUGCGCACGCCCCCUCCCCGGACAGCACCUGCCACCUAGAAACUUUCUUAGCAAAAAAAUUAAUAAAAACAAAUCCAUUGUCCUCUUAAAAUAUGCCCAACAGAGGAUUGAGCAUCA", "binding signal": "25.7 enrichment R"}
